FYI, the data here is from the supplement of paper PMC6555819.

# System: THRa:RXRa (NR concentration 90 nM, RXRa partner concentration 90 nM)
# method_notes: PBM binding z-score (relative to random genomic background probes); higher = stronger binding; sequences stand for … in GC…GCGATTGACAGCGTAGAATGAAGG
measured_endpoint: PBM binding z-score

TGAATGATGTTATAAGATCAGGGAACGTTGCAAA: -0.185
AGTCAAAGTTCATCTAGGTAACGTGAGATATGCT: 3.05
CGTCAAAGTTTAACTAAGGTAACGTAAAGCACGC: 4.66
CTACCAAGGTGAACAAGATCGTTGATTACTATTC: 1.66
CAAACTAGGTCACCGGAAGGTCCAAGTCCGCATG: 3.59
CCTTACGGGTCACTCCAGGTTATAACATCGGAGT: 5.32
CAAACTAGGTCACAGAGGTCAAGGTCCGTGCGTA: 5.05
CAAACTAGGTCAACAGGTCAAAGTCCGCTTCCCG: 3.78
TGTCAAAGTTGAAAGGTAACGTAAGTATCCACAC: 1.77
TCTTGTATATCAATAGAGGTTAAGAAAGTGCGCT: 1.72
TCGATTAGGTTACCAATGGGGCATTCAGCTTTCT: 0.894
CCTTACGGGTCACTGATAGGTTATAGCATTTGGA: 2.74
ATCTCTAGGTAACAAGTTCAGTGAAAGAGAGGAC: 1.68
ATATGTAGGTTCGCTGGGGTCATTCAGACTAGGC: 4.11
CCTTACGGGTAAAGGTTATAGCACGGGTGGTACG: 1.31
CAAATTAGGTCAAAGGTCAAAGTCGAGCCAACCA: 4.76
GCTATTAGTTGAAAGGGCAAACGAATGATTCTCG: 0.777
ATATGTAGGTTAAGGGTCATTTAGGTTGGTTCGC: 3.72
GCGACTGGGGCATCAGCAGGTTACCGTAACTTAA: 1.03
CTCGAAAGCTCGGTTGAGGTGAGTATACGGATAA: 1.85
ATCTCTAGGTAGCAAGTTCAGTGAAAGAGAGGAC: 0.972

====

# System: PPARg:RXRa 30nM:10nM, anti-RXR (NR concentration 30 nM, RXRa partner concentration 10 nM)
# method_notes: PBM binding z-score (relative to random genomic background probes); higher = stronger binding; sequences stand for … in GC…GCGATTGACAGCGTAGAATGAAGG
In this section, each of the sequences is paired with its reported PBM binding z-score.
measured_endpoint: PBM binding z-score

CTCGAAAGGTCGTGCTCAGGTGAGTGTACCAAAC: 1.05
CCTACTGGGCCATTCAGAGGTCGTTGATCATATG: -0.074
ACAAGTTGGTCAGCTGAGGTCACACACAATTCGG: 0.435

====

# System: PXR homodimer (NR concentration 270 nM)
# method_notes: PBM binding z-score (relative to random genomic background probes); higher = stronger binding; sequences stand for … in GC…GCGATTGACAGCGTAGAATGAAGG
The class of a record is decided solely by its measured PBM binding z-score; consult range A = under -0.2, range B = from -0.2 up to 0.8, range C = 0.8 and over

ATCTAAAGGTCGAGGTGAGTATAGAGAAAGGGAA: range C
ATATGTAGGTTAGCGGGTCATTCAGTTTGCGCAT: range C
CCGACTGGGGCAAGGTTACCATAACGCACAGCCA: range A
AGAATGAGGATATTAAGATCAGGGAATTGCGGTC: range B
GCTAGTTAGTCAGTAAAAGGTCACACACCGGTCG: range B
TCTAGCAGGCCAGAGGGTCACTCGAGAGGTACGG: range A
CCTTACGGGTCACTGACAGGTTATTGCATTTGGA: range B
ATATGTAGGTTATGGGGTCATTCAGTTTGCGCAT: range C
CCTTACGGGTCAACGTTATAGCACGGGTGGTACG: range B
ACGAGCAGGCCAAGGGTCACTCAAGATTAGTCCG: range A
TCTGCTTGGTCAGTTGGTCAGCTAACGAGCTGCC: range A
ATATGTAGGTTATCGGGTCATTGAGTTTGCGCAT: range C
TAGCCGAGGTCAGATCGGGCCAGTATACGCTATA: range A
GATACAGGGTAAAGGCCAGAGTACGCGTATTGAT: range B
